# experimental-details: reducers of endogenous Her2 protein level, primary screen, SKBR3 breast tumor cells, AlphaScreen, ATP viability (AID 461);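 for viability: percent of carrier control wells set as 100% viability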
# measurement-conditions: 18-24 h, measured here: SKBR3 viability, ATP luminescence, at 10 µM
experimental-endpoint: viability (%)
Give the number; % is assumed, so skip it.

Example entries begin here.
compound	obs-value
O=C(NCC1CCCCN1)c1cc(OCC(F)(F)F)ccc1OCC(F)(F)F (centres undefined)	86
CCOC(=O)CSc1nnc(Cn2nnc(-c3ccccc3)n2)n1CC	95.5
CCOC(=O)CSc1nc2cc(C(=O)NCc3ccco3)ccc2c(=O)n1C1CCCCC1	112
O=C(CSc1nnc(CNC(=O)c2cccs2)o1)NCCc1ccccc1	104
O=C(NC1CC1)C1CCN(c2ccc(S(=O)(=O)N3CCOCC3)cc2)CC1	92.5
COC(=O)N1CC(c2ccccc2)CC1=O (centres undefined)	96.5
COc1cc(OC)c(C(=O)Nc2ncn[nH]2)cc1OC	102
O=C1CCc2cc(S(=O)(=O)N3CCC(C(=O)Nc4nccs4)CC3)ccc2N1	98

Query :: Please indicate viability recorded for Cc1ccc(NC(=O)C2CCCN(S(=O)(=O)c3cnc[nH]3)C2)c(Br)c1 (centres undefined)
Result :: 88.5

Query :: Please indicate viability recorded for `CN(C)S(=O)(=O)c1ccc(Oc2ccc(S(=O)(=O)N(C)C)cc2)cc1`
Result :: 80.5

Query :: Please indicate viability recorded for `COc1ccc(-n2c(SCc3ccc(C#N)cc3)nnc2-c2ccccn2)cc1`
Result :: 82.5

Query :: Please indicate viability recorded for CC(C(=O)OCn1nnc2ccccc2c1=O)N1C(=O)c2ccccc2C1=O (centres undefined)
Result :: 110

Query :: Please indicate viability recorded for CCOC(=O)C(NC(C)=O)(NS(=O)(=O)c1ccccc1)C(F)(F)F (centres undefined)
Result :: 122

Query :: Please indicate viability recorded for `COc1ccc(OC)c(C(=O)CSc2nnc(-c3ccc(OC)c(OC)c3)o2)c1`
Result :: 104

----------
Her2 level values, listed per item
# measured-target: Receptor tyrosine-protein kinase erbB-2 (Homo sapiens) (UniProt P04626)
# Sequence (P04626 whole entry, looked up): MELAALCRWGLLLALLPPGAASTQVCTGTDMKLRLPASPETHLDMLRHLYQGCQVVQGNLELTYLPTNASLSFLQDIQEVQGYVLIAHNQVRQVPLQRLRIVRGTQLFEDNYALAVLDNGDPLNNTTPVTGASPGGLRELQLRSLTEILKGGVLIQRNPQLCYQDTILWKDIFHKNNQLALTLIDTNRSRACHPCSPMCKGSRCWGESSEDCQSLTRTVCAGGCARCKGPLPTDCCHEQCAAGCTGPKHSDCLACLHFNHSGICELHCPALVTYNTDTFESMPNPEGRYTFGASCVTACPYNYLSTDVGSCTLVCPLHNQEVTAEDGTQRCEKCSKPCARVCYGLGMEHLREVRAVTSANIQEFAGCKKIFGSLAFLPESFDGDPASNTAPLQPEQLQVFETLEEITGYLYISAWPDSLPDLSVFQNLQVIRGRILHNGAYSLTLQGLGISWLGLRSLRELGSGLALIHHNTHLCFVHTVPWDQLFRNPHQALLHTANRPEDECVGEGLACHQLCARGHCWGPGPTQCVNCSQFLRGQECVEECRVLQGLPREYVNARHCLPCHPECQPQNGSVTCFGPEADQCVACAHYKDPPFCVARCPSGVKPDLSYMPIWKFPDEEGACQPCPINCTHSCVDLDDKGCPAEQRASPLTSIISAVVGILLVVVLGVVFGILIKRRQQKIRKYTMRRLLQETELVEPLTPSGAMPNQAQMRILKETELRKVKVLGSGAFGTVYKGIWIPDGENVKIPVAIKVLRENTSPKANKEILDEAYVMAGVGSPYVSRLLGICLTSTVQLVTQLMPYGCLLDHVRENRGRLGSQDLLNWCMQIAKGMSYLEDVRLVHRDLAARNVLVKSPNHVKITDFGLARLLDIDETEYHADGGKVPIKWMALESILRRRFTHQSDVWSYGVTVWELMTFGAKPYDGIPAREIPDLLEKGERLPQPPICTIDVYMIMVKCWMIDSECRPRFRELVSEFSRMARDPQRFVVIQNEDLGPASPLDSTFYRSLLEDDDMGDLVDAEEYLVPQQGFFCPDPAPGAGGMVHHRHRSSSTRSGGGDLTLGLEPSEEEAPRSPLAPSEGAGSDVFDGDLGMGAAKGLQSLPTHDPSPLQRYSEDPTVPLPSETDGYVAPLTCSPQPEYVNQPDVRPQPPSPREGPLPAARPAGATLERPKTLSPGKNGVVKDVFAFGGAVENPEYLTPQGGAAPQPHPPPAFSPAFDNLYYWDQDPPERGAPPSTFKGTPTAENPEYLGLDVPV
# experimental-details: reducers of endogenous Her2 protein level, primary screen, SKBR3 breast tumor cells, AlphaScreen, ATP viability (AID 461);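 for Her2 level: lower value means less Her2 protein in the cells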;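 for viability: percent of carrier control wells set as 100% viability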
# measurement-conditions: 18-24 h, at 10 µM, stronger effect = lower value
Give the number; % is assumed, so skip it.

Example entries begin here.
compound	Her2 level, %
CC(=O)Oc1ccc(CCC(C)OC(C)=O)cc1 (stereo not drawn)	92
CC(C)CCn1c(N)c(S(=O)(=O)c2cccs2)c2nc3ccccc3nc21	43
COc1ccc(OC)c(NC(=O)CCN2CCN(c3ccccc3F)CC2)c1	106

Note: attention shifts to another entry.
Query :: Report Her2 level on Receptor tyrosine-protein kinase erbB-2 (Homo sapiens) (UniProt P04626) for this entry: `Cc1cc(=O)n(CC(C)C)c(O)c1C#N`
Result :: 98

----------
Her2 level values, listed per item
# measured-target: Receptor tyrosine-protein kinase erbB-2 (Homo sapiens) (UniProt P04626)
# experimental-details: reducers of endogenous Her2 protein level, primary screen, SKBR3 breast tumor cells, AlphaScreen, ATP viability (AID 461);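 for Her2 level: lower value means less Her2 protein in the cells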;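 for viability: percent of carrier control wells set as 100% viability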
# measurement-conditions: 18-24 h, at 10 µM, stronger effect = lower value
Give the number; % is assumed, so skip it.

compound	measured-target	obs-value
CCN(CC)CCN1C(=O)C(=O)/C(=C(/O)c2c(C)[nH]c(C(=O)OC)c2C)C1c1ccccc1OC (stereo unspecified)	Receptor tyrosine-protein kinase erbB-2 (Homo sapiens) (UniProt P04626)	117
O=S1(=O)N=C(Nc2nc3c(s2)CCCC3)c2ccccc21	Receptor tyrosine-protein kinase erbB-2 (Homo sapiens) (UniProt P04626)	112

Query :: Please indicate Her2 level recorded for `COc1ccc(NS(=O)(=O)c2c(C)[nH]c(=O)[nH]c2=O)c(OC)c1`
Result :: 91

Query :: Please indicate Her2 level recorded for O=C(NCc1ccccn1)C(C(=O)c1ccc(F)cc1)n1ccccc1=O (stereo unspecified)
Result :: 95.5

Query :: Please indicate Her2 level recorded for `O=S(=O)(NCc1ccco1)c1cccc2cccnc12`
Result :: 93.5

Query :: Please indicate Her2 level recorded for COc1ccccc1N1CCN(c2nc3ccccc3nc2C(C#N)C(=O)OC(C)C)CC1 (stereo unspecified)
Result :: 112

Query :: Please indicate Her2 level recorded for CC1CN(c2nc(-c3ccccc3)nc3ccccc23)CC(C)O1 (stereo unspecified)
Result :: 134

Query :: Please indicate Her2 level recorded for `C/C=C/Cn1c(Br)nc2c1c(=O)[nH]c(=O)n2C`
Result :: 91

Query :: Please indicate Her2 level recorded for `CCN(CC)CCN1C(=O)Cn2c(C)c(C)c3cccc1c32`
Result :: 92.5

Query :: Please indicate Her2 level recorded for `CC(=O)c1cc(C#N)c(SCC(=O)OC(C)C)nc1C`
Result :: 80.5
